Target: T1, human CD8α/β (human, UniProt P01732 22-182; P10966 22-170)
T1 construct: Soluble heterodimer used in SPR and in the Carterra binning (there printed only as CD8α/β); also called hCD8α/β
T1 sequence (P01732 22-182, chain 1 of 2): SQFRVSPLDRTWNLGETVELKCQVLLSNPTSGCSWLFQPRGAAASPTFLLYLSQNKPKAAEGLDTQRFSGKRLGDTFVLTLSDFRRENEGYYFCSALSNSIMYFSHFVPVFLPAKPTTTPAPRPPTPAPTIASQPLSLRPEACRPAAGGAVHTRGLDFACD
T1 sequence (P10966 22-170, chain 2 of 2): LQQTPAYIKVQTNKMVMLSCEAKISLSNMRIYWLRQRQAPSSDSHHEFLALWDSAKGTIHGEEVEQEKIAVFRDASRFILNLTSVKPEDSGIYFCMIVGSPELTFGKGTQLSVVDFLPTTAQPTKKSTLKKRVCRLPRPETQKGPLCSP
Assay: SPR, antibody captured on Protein A chip, hCD8α/β as analyte, 1:1 fit
Catalogue of pKd values
# reply with the number alone; pKd is -log10 of concentration in mol/L

Murine 02A01 (antibody, V domains shown, Recombinantly produced IgG; also called 02-parental; 02-Parent) VH: EVQLQQSGPELVKPGASLKISCKASGYTFTDFTMHWVKQSHGKSLEWIGLVNPNNGGNIYNQNFKGKATLTVDTSSSTAYMELRSLTSEDSSVYYCGRVPLYTSHGMDYWGQGTSVTVSS VL: DIVLTQSPAFLAVSLGQRATISCRASESVDSYDINSMHWYQQKPGQPPKLLIYRASHLQSGIPARFSGSGSRTDFTLTINFVEADDVATYYCQQSNEDPLTFGAGTKLELK = 8.03
humanized 02A01-VH6-VK2 (antibody, human IgG1, V domains shown, human IgG1 format; also called 02-VH6/VK2) VH: EVQLVQSGAEVKKPGATVKISCKASGYTFTDFTMHWVQQAPGKGLEWIGLVNPNNGGNIYAEKFQGRVTLTVDTSTSTAYMELSSLRSEDTAVYYCGRVPLYTSHGMDYWGQGTLVTVSS VL: EIVLTQSPATLSVSPGERATISCRASESVDSYDINSMHWYQQKPGQAPRLLIYRASHLQSGIPARFSGSGSRTDFTLTISSVEPEDFATYYCQQSNEDPLTFGQGTKLEIK = 7.78

Please find the next binder below.
For humanized 02A01-VH6-VK1 (antibody, human IgG1, V domains shown, human IgG1 format; also called 02-VH6/VK1) VH: EVQLVQSGAEVKKPGATVKISCKASGYTFTDFTMHWVQQAPGKGLEWIGLVNPNNGGNIYAEKFQGRVTLTVDTSTSTAYMELSSLRSEDTAVYYCGRVPLYTSHGMDYWGQGTLVTVSS VL: EIVLTQSPATLSVSPGERATISCRASESVDSYDINSMHWYQQKPGQPPRLLIYRASHLQSGIPARFSGSGSRTDFTLTISSVEPEDFATYYCQQSNEDPLTFGQGTKLEIK , write its pKd.
7.80
